test protocol: Primary qHTS for Huh7 cytotoxicity: counterscreen for inhibitors of MERS-S pseudotyped particle cell entry (AID 1479147)
recorded conditions: cell viability read-out; at 57.1 µM (top of the series) unless noted; series mostly up to 57.1 µM
Inconclusive results are not listed. Calls of active or inactive are those of the source. The call rests on the fitted dose curve.
metric: outcome

compound: CC1(C)CCC(CN2CCN(c3ccc(C(=O)NS(=O)(=O)c4ccc(NCC5CCOCC5)c([N+](=O)[O-])c4)c(Oc4cnc5[nH]ccc5c4)c3)CC2)=C(c2ccc(Cl)cc2)C1
metric: outcome
result: inactive

compound: CCc1c(Cl)c(O)c(Cl)c(O)c1C(=O)O[C@H]1[C@H](O)[C@H](OC)[C@H](OC/C2=C\C=C\C[C@H](O)/C(C)=C\[C@H](CC)[C@@H](O[C@@H]3OC(C)(C)[C@@H](OC(=O)C(C)C)[C@H](O)[C@@H]3O)/C(C)=C/C(C)=C/C[C@@H]([C@@H](C)O)OC2=O)O[C@@H]1C
metric: outcome
result: inactive

###

study target: Nucleoprotein (Lymphocytic choriomeningitis virus (strain Armstrong)) (UniProt P09992)
Sequence (P09992 whole entry, looked up): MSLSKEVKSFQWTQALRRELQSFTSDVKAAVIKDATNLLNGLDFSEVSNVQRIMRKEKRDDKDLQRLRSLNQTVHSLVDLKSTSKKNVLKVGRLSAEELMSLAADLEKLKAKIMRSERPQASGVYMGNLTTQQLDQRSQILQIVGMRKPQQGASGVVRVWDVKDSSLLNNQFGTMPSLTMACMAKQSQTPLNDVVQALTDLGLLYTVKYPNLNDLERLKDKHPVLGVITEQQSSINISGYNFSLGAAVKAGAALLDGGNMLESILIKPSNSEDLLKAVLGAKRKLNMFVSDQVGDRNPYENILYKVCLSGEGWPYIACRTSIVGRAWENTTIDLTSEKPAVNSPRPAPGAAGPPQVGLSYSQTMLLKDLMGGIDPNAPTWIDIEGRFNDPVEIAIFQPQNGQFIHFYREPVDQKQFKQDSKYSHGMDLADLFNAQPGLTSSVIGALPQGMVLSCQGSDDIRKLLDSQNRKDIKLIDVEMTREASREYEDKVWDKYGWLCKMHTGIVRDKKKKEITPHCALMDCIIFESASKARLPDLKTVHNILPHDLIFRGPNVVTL
test protocol: qHTS for Inhibitors of the Functional Ribonucleoprotein Complex (vRNP) of Lymphocytic Choriomeningitis Arenaviruses (LCMV): LCMV Primary Screen - GLuc reporter signal (AID 1347086); further: nearly all actives have a fitted effect of over 70% in size
recorded conditions: LCMV minigenome vRNP cell assay, Gaussia luciferase reporter; series mostly up to 57.5 µM
Inconclusive results are not listed. The source made the active and inactive calls. Calls come from the whole dose curve.
Outcome codes: active, inactive

compound: CCCC[C@@]1(C2CCCC2)Cc2cc(OCC(=O)O)c(Cl)c(Cl)c2C1=O
answer label: inactive
--
compound: Oc1ccc2c(c1)OCC1(O)Cc3cc(O)c(O)cc3C21 (configuration not stated)
answer label: inactive
--
compound: COC1=C(C)C(=O)O[C@]12C(=O)C(C)=C1CCCCN3[C@H]([C@@H]4C[C@H](C)C(=O)O4)CC[C@]132
answer label: inactive
--
compound: CC(C)OC(=O)c1ccccc1
answer label: inactive
--
compound: CC12CCC(=O)C=C1C(F)CC1C2C(O)CC2(C)C1CCC2(O)C(=O)CO (configuration not stated)
answer label: inactive
--
compound: CC1(C)C[C@H](O)[C@@]23C[C@@H](OC2=O)[C@]2(C)C(=CCC4[C@@]5(C)CC[C@H](O)C(C)(C)C5CC[C@]42C)[C@@H]3C1 (some centres not stated)
answer label: inactive
--
compound: COc1c2c(nc3occc13)C(CC=C(C)C)(OC)C(=O)C=C2 (configuration not stated)
answer label: inactive
--
compound: O=C(O)Cn1ccnc1
answer label: inactive
--
compound: CC[C@H](CC#N)OC(=O)N[C@@H](C)c1cccc(NC(=O)Nc2ccc(-c3cnco3)c(OC)c2)c1
answer label: active
--
compound: C=CCN1CCc2c(cc(O)c(O)c2Cl)C(c2ccccc2)C1 (configuration not stated)
answer label: inactive
--
compound: CC(C)(C)c1ccccc1
answer label: inactive
--
compound: Nc1ncnc2c1c(-c1cnc3[nH]ccc3c1)nn2C1CCCC1
answer label: active
--
compound: CC(C)C(=O)COc1c2occc2cc2ccc(=O)oc12
answer label: inactive
--
compound: S=C(NCc1ccccc1)NCc1ccccc1
answer label: inactive
--
compound: C=C[C@@H](C1=CC(=O)C(OC)=C(OC)C1=O)c1ccccc1
answer label: inactive
--
compound: COc1cc(C(C)C)c(Oc2cnc(NC(CO)CO)nc2N)cc1I
answer label: inactive
--
compound: O=C1O/C(=C\c2ccc(O)cc2)C(O)=C1c1ccc(O)cc1
answer label: inactive
--
compound: COc1ccccc1N1CCN(CCN(C(=O)C2CCCCC2)c2ccccn2)CC1
answer label: inactive
--
compound: O=C1CCCC(=O)C1C(=O)c1ccc(C(F)(F)F)cc1[N+](=O)[O-]
answer label: inactive
--
compound: COc1cc2c(c(OC)c1OC)-c1c(cc3c(c1OC)OCO3)C[C@H](C)[C@@](C)(O)C2
answer label: inactive
--
compound: CCCCCCCCCCCCC
answer label: inactive
--
compound: COc1c(O)cc2c(c1O)[C@@H]1O[C@H](CO)[C@@H](O)[C@H](O)[C@H]1OC2=O
answer label: inactive

Cited source: PubChem BioAssay (NCATS)
